Listed here: items and their measured Bliss excess.
System: OVCAR-8 (Ovarian Carcinoma);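 also: after 72 h of two-drug dosing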
Assay: Bliss excess, mean over the matrix (fraction); higher = more synergy

- compound: "COc1nnc2ccc(N3CCC(c4ccc(OCCN5CCN(C)C(=O)[C@H]5C)cc4)CC3)nn12 [AZD5153] + C=CCn1c(=O)c2cnc(Nc3ccc(N4CCN(C)CC4)cc3)nc2n1-c1cccc(C(C)(C)O)n1 [AZD1775] (first compound max 1 µM, partner max 1 µM)"
  assayed_target: "OVCAR-8 (Ovarian Carcinoma)"
  Bliss excess: -0.0631
- compound: "Cc1c2c(nn1C)CSCc1cc(n(C)n1)CSc1cc(c3ccccc3c1)OCCCc1c(C(=O)O)n(C)c3c-2c(Cl)ccc13 [AZD5991] + CC1(C)CCC(CN2CCN(c3ccc(C(=O)NS(=O)(=O)c4ccc(NCC5CCOCC5)c([N+](=O)[O-])c4)c(Oc4cnc5[nH]ccc5c4)c3)CC2)=C(c2ccc(Cl)cc2)C1 [Venetoclax] (first compound max 1 µM, 7x7, partner max 1 µM)"
  assayed_target: "OVCAR-8 (Ovarian Carcinoma)"
  Bliss excess: -0.0157
- compound: "Cc1c2c(nn1C)CSCc1cc(n(C)n1)CSc1cc(c3ccccc3c1)OCCCc1c(C(=O)O)n(C)c3c-2c(Cl)ccc13 [AZD5991] + C[C@@H]1COCCN1C2=NC(=NC(=C2)C3(CC3)[S@](=N)(=O)C)C4=C5C=CNC5=NC=C4 [AZD6738] (first compound max 1 µM, 7x7, partner max 10 µM)"
  assayed_target: "OVCAR-8 (Ovarian Carcinoma)"
  Bliss excess: 0.001
